Assay: LNCaP granularity increase inducers, single-point recheck – cell-based, side scatter shift, flow cytometry, confirmation (AID 1069);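 note: LNCaP human prostate cancer cells in low-serum medium with charcoal-stripped FBS; percent of cells with raised granularity gated so DMSO controls show 10%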
Settings: LNCaP differentiation, 4 d, side scatter shift, at 10 µM, stronger effect = higher value

compound: COCCn1cc(C(=O)N2CCCC(C)C2)c2c3ccccc3n(C)c2c1=O (stereo not given)
side scatter shift: 3.2%
--
compound: O=C(NCCCN1CCN(c2ccccc2F)CC1)C1CCC(=O)N1C1CCCC1 (stereo not given)
side scatter shift: 2.35%
--
compound: CCCS(=O)(=O)N1CCCC(C(=O)NCCCN2CCN(c3ccccc3F)CC2)C1 (stereo not given)
side scatter shift: 5.95%
--
compound: CCOC(=O)CSc1nnc(CNC(=O)c2ccccc2OC)n1-c1ccc(OC)cc1
side scatter shift: 4.3%
--
compound: COc1ccccc1NC(=O)c1nc[nH]c1C(=O)Nc1ccccc1OC
side scatter shift: 5.65%
--
compound: CCN1CCN(CCNC(=O)C2CCCN(Cc3nc(-c4cccc(Cl)c4)oc3C)C2)CC1 (stereo not given)
side scatter shift: 32.2%
--
compound: O=C(Cn1cc2c(n1)CCCC2)NCCCN1CCN(c2ccccc2F)CC1
side scatter shift: 4.95%
--
compound: CCC(=O)N(Cc1ccco1)c1nc(-c2cc(OC)ccc2OC)cs1
side scatter shift: 9.2%
--
compound: Cc1oc(-c2ccc(Cl)cc2)nc1CN1CCC(C(=O)N2CCc3ccccc3C2)CC1
side scatter shift: 17%
--
compound: CCn1c(=O)cc(OCC(=O)NCCCN2CCN(c3cccc(Cl)c3)CC2)c2ccccc21
side scatter shift: 18.3%

====

Assay: LNCaP granularity increase inducers, single-point recheck – cell-based, side scatter shift, flow cytometry, confirmation (AID 1069)
Settings: LNCaP differentiation, 4 d, side scatter shift, at 10 µM, stronger effect = higher value
Assign 1 to entries whose side scatter shift meets or exceeds 6%; assign -1 to the rest.

molecule: COCCn1c(=O)[nH]c2cc(C(=O)NCCCN3CCN(c4ccc(F)cc4)CC3)ccc2c1=O
category: 1
--
molecule: CCOC(=O)c1[nH]c(C)c(C(=O)NC2CCCCCC2)c1C
category: 1
--
molecule: Cc1oc(-c2ccc(Cl)cc2)nc1CN1CCCC(C(=O)NCc2cccnc2)C1 (stereo unspecified)
category: 1
--
molecule: COc1ccc(N2CCN(CCCNC(=O)CCCn3c(=O)[nH]c4ccsc4c3=O)CC2)cc1
category: 1
--
molecule: CCc1ccc(-c2nc(CN3CCC(C(=O)NCc4ccc(F)cc4)CC3)c(C)o2)cc1
category: 1
--
molecule: Cn1c(=O)cc(OCC(=O)NCCCN2CCN(c3ccccc3F)CC2)c2ccccc21
category: -1
--
molecule: CCN(CC)CCNC(=O)c1cc2c(-c3ccc(Cl)cc3)nn(C)c2s1
category: 1
--
molecule: Cc1ccccc1-c1nc(CN2CCC(C(=O)NCc3ccco3)CC2)c(C)o1
category: -1
--
molecule: C=CCn1c(=N)n(CC(O)COc2ccccc2OC)c2ccccc21 (stereo unspecified)
category: -1
--
molecule: O=C(NCCCN1CCN(c2cccc(Cl)c2)CC1)C1CCC(=O)N1Cc1ccccc1Cl (stereo unspecified)
category: 1
--
molecule: CC(C)(C)OC(=O)N1CCC(C(=O)N2CCCCCC2)CC1
category: 1
--
molecule: COc1ccc2cc3c(N)nn(C(=O)Cc4ccccc4OC)c3nc2c1
category: 1
--
molecule: CCCN(CCC)CCNC(=O)C1CCN(Cc2nc(-c3ccc(Cl)cc3)oc2C)CC1
category: 1
--
molecule: CCc1ccc(CNC(=O)CN2C(=O)COc3ccccc32)cc1
category: -1
--
molecule: Cc1ccccc1Cn1cnc2c(cnn2C(C)(C)C)c1=O
category: -1
--
molecule: O=C(CN1CCN(Cc2ccc3c(c2)OCO3)CC1)N1CCc2[nH]c3ccc(F)cc3c2C1
category: 1
--
molecule: Cc1cc(N2C(=O)C3C4C=CC(C4)C3C2=O)ccc1Br (stereo unspecified)
category: 1
--
molecule: COc1ccc(Nc2nc(N)nc(CN3CCC(Cc4ccccc4)CC3)n2)cc1
category: 1
--
molecule: Cc1oc(-c2ccccc2F)nc1CN1CCC(C(=O)NCc2ccco2)CC1
category: -1
--
molecule: COc1cc(C(=O)NCc2nnc(SCC(=O)NCc3ccccc3)o2)cc(OC)c1OC
category: 1
--
molecule: Cc1cc(NC(=O)CSc2nnc(Cn3c(=O)sc4ccccc43)n2-c2ccccc2C)no1
category: 1

====

Recorded measurements of side scatter shift, one per entry
Assay: LNCaP granularity increase inducers, single-point recheck – cell-based, side scatter shift, flow cytometry, confirmation (AID 1069);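 note: LNCaP human prostate cancer cells in low-serum medium with charcoal-stripped FBS; percent of cells with raised granularity gated so DMSO controls show 10%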
Conditions: LNCaP differentiation, 4 d, side scatter shift, at 10 µM, stronger effect = higher value

compound: N#C/C(=C\c1ccc(O)c(O)c1)C(=O)NCCCc1ccccc1
side scatter shift (%): 7.05

compound: COc1ccc(/C=N/c2nc3ccccc3n2C)cc1OC
side scatter shift (%): 6.6

compound: Cc1cc(C)c2c(=O)n(CC(=O)NCCCN3CCN(c4ccccc4F)CC3)sc2n1
side scatter shift (%): 6.8

compound: CCOC(=O)Cn1nc(-c2ccc(Cl)cc2)cc1N
side scatter shift (%): 4.7

compound: CCCc1ccc(Oc2cn[nH]c2-c2ccc(O)c(C)c2O)cc1
side scatter shift (%): 4.85

compound: O=C(NCCCN1CCN(c2cccc(Cl)c2)CC1)c1ccc(N2CCCC2=O)cc1
side scatter shift (%): 10.1

compound: Cc1cccc(-c2nc(CN3CCCC(C(=O)NC4CCCCC4)C3)c(C)o2)c1 (stereo not given)
side scatter shift (%): 7.35

compound: O=C(CCCCCn1c(=O)[nH]c2ccccc2c1=O)NCCCN1CCN(c2ccccc2F)CC1
side scatter shift (%): 3

compound: CCOC(=O)N1CCN(C(=O)C2CCN(Cc3nc(-c4ccccc4C)oc3C)CC2)CC1
side scatter shift (%): 5.15

compound: CCc1ccc(-c2nc(CN3CCC(C(=O)NCc4ccccc4OC)CC3)c(C)o2)cc1
side scatter shift (%): 14.5

====

Test: LNCaP granularity increase inducers, single-point recheck – cell-based, side scatter shift, flow cytometry, confirmation (AID 1069);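 note: LNCaP human prostate cancer cells in low-serum medium with charcoal-stripped FBS; percent of cells with raised granularity gated so DMSO controls show 10%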
Conditions: LNCaP differentiation, 4 d, side scatter shift, at 10 µM, stronger effect = higher value
Recorded side scatter shift determines the group label, using lower band: < 4%; central band: ≥ 4% and < 7%; upper band: ≥ 7%

compound: CCOC(=O)c1c(C)n(C)c2ccc(OCC(O)CNC(CC)CO)cc12 (stereo unspecified)
category: lower band
--
compound: CCOC(=O)c1sc2ncnc(N3CCN(c4ccc(OC)cc4)CC3)c2c1C
category: upper band
--
compound: Cc1ccccc1-c1nc(CN2CCC(C(=O)NCc3cccnc3)CC2)c(C)o1
category: lower band
--
compound: COc1ccc(OC)c(CNC(=O)CCNC(=O)Cn2ccc3ccccc3c2=O)c1
category: upper band
--
compound: O=C(NCCc1c[nH]c2ccccc12)C(F)(F)C(F)F
category: central band
--
compound: Cc1cc(=O)oc(C)c1C(=O)NCCCN1CCN(c2ccccc2F)CC1
category: lower band
--
compound: Cc1ccccc1-c1nc(CN2CCCC(C(=O)NCc3cccnc3)C2)c(C)o1 (stereo unspecified)
category: upper band
--
compound: COc1ccc2c(c1)CCc1c(C(=O)Nc3cc(C)n(Cc4ccc(Cl)cc4)n3)noc1-2
category: upper band
--
compound: COc1ccc(-c2oc3ncn(CCN4CCOCC4)c(=N)c3c2-c2ccc(OC)cc2)cc1
category: upper band
--
compound: Cc1ccc(C(=O)/C=C/Nc2cccc(O)c2)cc1
category: central band
--
compound: COc1ccc(-c2ccc(-c3noc(-c4ccccc4)n3)c(OC)n2)cc1
category: upper band
--
compound: CCOC(=O)N1CCN(C(=O)CCc2c(C)nc3c(c(C)nn3-c3ccc(C)c(C)c3)c2C)CC1
category: central band
--
compound: CCN(CC)CC(=O)Nc1ccc(-c2nc3cc(NC(=O)CN(CC)CC)ccc3o2)cc1
category: upper band
--
compound: Cc1nnc(NCc2n[nH]c(=O)c3ccccc23)c2ccccc12
category: central band
--
compound: c1cncc(-c2nc3ccccc3o2)c1
category: lower band
--
compound: CN(C)c1ccc(-c2nn3c(-c4ccc(Cl)cc4Cl)nnc3s2)cc1
category: central band
--
compound: Cc1oc(-c2ccc(Cl)cc2)nc1CN1CCC(C(=O)N2CCN(Cc3ccccc3)CC2)CC1
category: upper band
--
compound: CCCOc1ccc2nc(NC(=O)OC)[nH]c2c1
category: lower band
--
compound: COc1ccc(CC(=O)Nc2ccc(-c3nnc(-c4ccc(C)cc4)o3)cc2)cc1
category: central band
--
compound: COc1ccc(CCNC(=O)C2CCN(Cc3nc(-c4ccccc4F)oc3C)CC2)cc1OC
category: upper band

====

Assay: LNCaP granularity increase inducers, single-point recheck – cell-based, side scatter shift, flow cytometry, confirmation (AID 1069);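 note: LNCaP human prostate cancer cells in low-serum medium with charcoal-stripped FBS; percent of cells with raised granularity gated so DMSO controls show 10%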
Details: LNCaP differentiation, 4 d, at 100 µM, stronger effect = higher value
Label rule, in plain words: side scatter shift of 30% and up is 1 (yes), under 30% is 0 (no).

compound: Cc1ccc(C)c(N2CCN(CCCNC(=O)Cn3cc4c(n3)CCC(C)C4)CC2)c1 (stereo unspecified)
category: 0 (no)
//
compound: Cc1sc(CO)c(Sc2ccccc2)c1C(=O)O
category: 0 (no)
//
compound: COc1ccc(CCNC(=O)C2CCCN(Cc3nc(-c4cccc(Cl)c4)oc3C)C2)cc1OC (stereo unspecified)
category: 0 (no)
//
compound: Cc1ccccc1OCc1nc(-c2ccc(NC(=O)c3ccc4c(c3)OCO4)cc2)no1
category: 1 (yes)
//
compound: O=C(NCCc1c[nH]c2ccccc12)C(F)(F)C(F)F
category: 0 (no)
//
compound: COC(=O)c1[nH]c2c(c1C)C(=O)CCC2
category: 0 (no)
//
compound: COc1ccccc1NC(=O)c1nc[nH]c1C(=O)Nc1ccccc1OC
category: 1 (yes)
//
compound: O=C(CN1CCN(Cc2ccc3c(c2)OCO3)CC1)N1CCc2[nH]c3ccc(F)cc3c2C1
category: 0 (no)
//
compound: CCCS(=O)(=O)N1CCCC(C(=O)NCCCN2CCN(c3ccccc3F)CC2)C1 (stereo unspecified)
category: 1 (yes)
//
compound: Cn1nc(-c2ccc(Cl)cc2)c2cc(C(=O)NCCCN3CCCC3)sc21
category: 1 (yes)
//
compound: O=C(NCCCN1CCN(c2ccc(F)cc2)CC1)c1cccc(N2CCCC2=O)c1
category: 1 (yes)

Data provenance is PubChem BioAssay AID1069.
